Provenance of the data: paper PMC10132805

- target system: T1, N-terminal domain of clathrin (human, UniProt Q00610 1-364)
- T1 chain: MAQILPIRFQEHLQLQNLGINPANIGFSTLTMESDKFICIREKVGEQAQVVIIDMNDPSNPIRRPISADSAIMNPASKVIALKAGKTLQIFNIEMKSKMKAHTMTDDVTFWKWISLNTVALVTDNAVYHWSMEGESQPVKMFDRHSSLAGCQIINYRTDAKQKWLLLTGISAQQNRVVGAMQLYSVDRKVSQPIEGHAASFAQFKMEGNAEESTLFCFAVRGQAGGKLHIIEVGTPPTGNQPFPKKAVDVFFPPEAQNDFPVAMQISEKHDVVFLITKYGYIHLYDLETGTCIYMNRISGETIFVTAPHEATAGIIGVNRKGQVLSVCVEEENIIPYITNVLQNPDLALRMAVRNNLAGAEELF
- method notes: FP
readout label: pKd
Bear in mind: pKd is minus log10 of a mol/L concentration; give just that figure.

Data request: Report pKd, nothing else, for this binder: VDGAADLIDFSVPTDE [mu-NS_(705-720) (MRV1) peptide]
Data returned: 4.49
